- Test system: CCRF-CEM leukemia
- experiment.description: NCI-60 one-dose screen, 48 h (100 = growth as untreated, 0 = no growth, -100 = all killed)
- measurement.context: 10 µM unless noted
Compounds without any hit were thinned out: in the full panel of roughly 83,000, 20% have a hit. Active and inactive are the calls of the source. The calls were made as follows: active = growth percent below 10; inactive = the rest.
endpoint.name: growth

Reported growth for "O[C@H]1CO[C@H]2[C@@H]1OC[C@@H]2Oc1ccc(Nc2ccnc(Nc3ccc(O[C@H]4CO[C@H]5[C@@H]4OC[C@@H]5O)c(Cl)c3)n2)cc1Cl" was 7.39% (active)

// recorded growth for "CC(C)c1ccc(C(=O)OC(=O)c2ccc(C(C)C)cc2)cc1" : 66.8% (inactive)

For record "CCCNCC(=O)Nc1ccc(C(=O)OC(C)(C)CC)cc1" the listed growth is 104% (inactive)

Data point: CC(=O)Nc1cccc(C2=CC(c3ccc(C)cc3)n3ncnc3N2)c1 (centres undefined) ; growth = 110% (inactive)

get_value(item= "CCCN1CCN(c2ccc3nc(-c4ccc5nc(-c6cc(OC)c(OC)c(OC)c6)[nH]c5c4)[nH]c3c2)CC1" , readout=growth) returns 41.2% (inactive)

growth recorded for this compound, "Cc1cc(Cc2cc(C)cc(C(C)(C)C)c2O)c(O)c(C(C)(C)C)c1" , is 28.5% (inactive)

"COc1ccc(/C(C)=C(\c2ccc(Cl)cc2)c2ccc(OCCN3CCCC3)cc2)cc1F" yielded growth of 31.2% (inactive)

Record summary for "O=C(CCc1nc(-c2cccc(Cl)c2)no1)Nc1ccccn1" : reported growth = 95% (inactive)

Input "COc1ccc(O)c(-c2cc(-c3ccccc3)c(C#N)c(=O)[nH]2)c1" . Output growth: 91.7% (inactive)

====

- Tested on: BT-549 breast
- experiment.description: NCI-60 one-dose screen, 48 h
- measurement.context: 10 µM unless noted
Compounds without any hit were thinned out: in the full panel of roughly 83,000, 20% have a hit. Calls of active or inactive are those of the source. The calls were made as follows: active = growth percent below 10; inactive = the rest.
Allowed answers: true (active), false (inactive)

**Query** Please share the test call associated with "Cc1[nH]c(-c2nc3ccccc3[nH]2)c(C)c1C(=O)N1CCOCC1" .
**Result** false

**Query** Hi, sorry to bother you, what did the test record for "N#Cc1cnn2c(-c3ccc(Cl)cc3)nc(NCCc3ccccc3)nc12" ?
**Result** false

**Query** Hey, what did the test say about "COc1cc(/C=C/C(=O)c2cccc(-n3cc(-c4ccccc4)[nH]c3=O)c2)cc(OC)c1OC" ?
**Result** true

**Query** Which outcome was assigned to Nc1nc(I)c2ncn(C3OC(CO)C(O)C3O)c2n1 (stereo not given) in this test?
**Result** false

**Query** Record request — test call for "Cn1cc(Nc2nccc(-c3ccc(N4CCCC4)c(C#N)c3)n2)cn1"
**Result** false

====

- Test system: NCI-H23 lung
- experiment.description: NCI-60 one-dose screen, 48 h (100 = growth as untreated, 0 = no growth, -100 = all killed)
- measurement.context: 10 µM unless noted
About 83,000 compounds went through this panel and 20% of them were active in at least one assay; those are over-represented in the sample as a whole.
Lab note - cut at 50% for growth: satisfied if strictly below, not satisfied if not.

**Query** Does this compound meet the criterion growth < 50%? "CN1CCN(C(=O)[C@@]2(C)CC[C@]3(C)CC[C@]4(C)C(=CC[C@@H]5[C@@]6(C)C/C(=C/c7ccncc7)C(=O)C(C)(C)[C@@H]6CC[C@]54C)[C@@H]3C2)CC1"
**Result** not satisfied

**Query** Is growth strictly under 50% for the entry "N#Cc1c(NC(=O)c2ccc(Br)cc2)sc2c1CCCC2" ?
**Result** not satisfied

**Query** # strict comparison: is reported growth < 50%? input = O=C1CC(c2ccc3c(c2)OCO3)Nc2cc3c(cc21)OCO3 (configuration not stated)
**Result** satisfied

**Query** Bench note: check whether "COc1cc2c(O)n(CCCn3ccnc3)c3c4cnc5cccc(c(=O)c3c2cc1OC)c54" shows growth below 50%
**Result** satisfied

**Query** Input "Cn1nnnc1-c1ccc(N)cc1" ; condition: growth strictly below 50%. Does it hold?
**Result** not satisfied

**Query** Record "CCN(CC)S(=O)(=O)c1ccc(O)c(NC(=O)c2[nH]c(C)c(C(C)=O)c2CCc2ccc(Cl)cc2)c1" : is its growth strictly below 50%?
**Result** satisfied

**Query** I wonder whether "O=C1Nc2ccc(Cl)cc2/C1=N/N=C/c1c[nH]c2ccccc12" has growth below 50%. Can you tell?
**Result** not satisfied

**Query** Is growth strictly under 50% for the entry "CN(C)CCOC(=O)Nc1ccc(Cl)cc1" ?
**Result** not satisfied

**Query** A record lists COc1ccc(C2CC(c3cnccn3)=NN2)cc1OC (configuration not stated) . Is its growth below 50%?
**Result** not satisfied

**Query** I'd appreciate it if you could check whether "N=C(N)c1ccc(-c2ccc(-c3ccc(Cl)cn3)s2)cc1" has growth smaller than 50%.
**Result** not satisfied

**Query** Please check: growth for "Fc1ccc(Nc2nc3nonc3nc2Nc2ccc(F)cc2)cc1" , strictly under 50% or not?
**Result** satisfied

**Query** Strictly below 50%: is that where growth of "C=C(C=O)[C@@H]1CC=C(C=O)CC1" sits?
**Result** satisfied

**Query** Field: below-cutoff. Rule: recorded growth strictly less than 50%. Subject: "CNC=O"
**Result** not satisfied

**Query** # check: growth < 50% for "Cc1nc2ccc(C(=O)NCc3cc(C(=O)O)c(C)o3)cc2nc1C"
**Result** not satisfied

**Query** Given "Clc1ccc2c(NCCCN3CCN(c4nc(N5CCOCC5)nc5ccccc45)CC3)ccnc2c1" , is recorded growth strictly lower than 50%?
**Result** not satisfied

**Query** In the record for "NS(=O)(=O)Oc1ccc(-c2sc3cc(O)ccc3c2C(=O)c2ccc(OCCN3CCCCC3)cc2)cc1" , is growth less than 50%?
**Result** not satisfied

**Query** Does this compound meet the criterion growth < 50%? "Clc1ccc(/C=C/c2nc(Nc3ccc(Cl)cc3)c3ccccc3n2)cc1"
**Result** not satisfied

**Query** Strictly below 50%: is that where growth of "Cc1nc(Nc2ccccn2)sc1C(=O)/C=C/c1ccc(Br)cc1" sits?
**Result** not satisfied

**Query** Hello, is growth of the following compound strictly smaller than 50%? "CCOc1ccc2nc(-c3cccc(OCC(=O)NC(C)C)c3)nc(Nc3ccc(-c4cn[nH]c4)cc3)c2c1"
**Result** satisfied

**Query** Please indicate whether the reported growth of CC(=O)Nc1cccc(C2=CC(c3ccc(C)cc3)n3ncnc3N2)c1 (configuration not stated) is strictly below 50%.
**Result** not satisfied

====

- Test system: MCF7 breast
- experiment.description: NCI-60 one-dose screen, 48 h (100 = growth as untreated, 0 = no growth, -100 = all killed)
- measurement.context: 10 µM unless noted
About 83,000 compounds went through this panel and 20% of them were active in at least one assay; those are over-represented in the sample as a whole. Activity calls are given as the source filed them. Rule for the calls: active = growth percent below 10; inactive = the rest.
Give measured growth for each item. Keep answers brief.

For the compound "COc1ccc(/C=N/NC(=O)Cn2c(-c3ccc(S(C)(=O)=O)cc3)nc3cc(Cl)ccc32)cc1" , the measured growth on MCF7 breast was 17.2% (inactive)

For O=C1C(Cl)C(c2ccccc2Cl)N1n1cnnc1 (stereo not drawn) on MCF7 breast, measured growth was 97.4% (inactive)

Param item: "N=C(N)c1ccc(-c2ccc(-c3ccc(Cl)cn3)s2)cc1" ; param system: MCF7 breast; output growth: -44.4% (active)

Noted growth for "O=[N+]([O-])c1ccc(-c2cc3c(Nc4ccc(Cl)c(C(F)(F)F)c4)ncnc3s2)cc1" , tested on MCF7 breast: 3.55% (active)

Fill in: MCF7 breast growth for CC(C)CCC[C@@H](C)[C@H]1CCC2C3=CCn4c(=O)ccc(=O)n4C3CC[C@@]21C (stereo partly drawn) = -92.5% (active)

The compound "O=C(C[C@@]1(O)C(=O)Nc2c(Cl)ccc(Cl)c21)c1ccc(C2CC2)cc1" , when measured on MCF7 breast, yielded growth of 16.5% (inactive)

Param item: "Cc1[nH]c(-c2nc3ccccc3[nH]2)c(C)c1C(=O)N1CCOCC1" ; param system: MCF7 breast; output growth: 93.3% (inactive)

The measured growth that "O=C(Nc1ccccc1)c1sc(-c2cccc(C(F)(F)F)c2)cc1O" showed for MCF7 breast is 74.7% (inactive)

The reported growth value, MCF7 breast, for "CCOc1cc(N)ccc1C(=O)NCCCN(CC)CC" reads 96.4% (inactive)

Measured growth for this entry "COc1ccc(N=c2nc3sc4cc(Cl)ccc4n3c(N)c2C#N)cc1" on MCF7 breast: 61.2% (inactive)

For the compound CC(C)OC(=O)OCOP(=O)(OCOC(=O)OC(C)C)C1CCCN(O)C1=O (stereo not drawn) , the measured growth on MCF7 breast was 31.9% (inactive)

Entry "N=C(N)c1ccc(-c2ccc(-c3ccc(Cl)cc3Cl)o2)cc1" , MCF7 breast data, growth value: -73.7% (active)

growth value, target or system MCF7 breast, for "Cc1nc(Nc2ccc(NC(=S)Nc3ccccc3)cc2)nc2nc(SCc3ccccc3)[nH]c(=O)c12" : 87.3% (inactive)

Readout growth for "CCCCOc1ccc(NC(=O)n2nc(N=NN(C)C)c3ccc(Cl)cc32)cc1" , test system MCF7 breast, was 85.2% (inactive)

Observed growth on MCF7 breast, entry "CCn1c(Sc2nnc(Nc3ccccc3)s2)nc2c1c(=O)n(C)c(=O)n2C" , equals 98.6% (inactive)

Item "C=C1C(=O)O[C@H]2[C@H]1CC/C(COC(=O)/C=C\C(=O)NCc1ccc(Cn3c(=O)sn(-c4ccc(Cl)cc4)c3=O)cc1)=C\CC[C@@]1(C)O[C@@H]21" was tested on MCF7 breast; the reported growth is -52% (active)

The compound "N#C/C=C(\c1ccc([N+](=O)[O-])cc1)n1nnc2cc(Cl)c(Cl)cc21" on MCF7 breast: growth was 1.7% (active)

Measured growth for this entry "COc1ccc(OC)c(C(=O)Nc2cccc(-c3cc(=O)c4ccccc4o3)c2)c1" on MCF7 breast: 92% (inactive)

Here "CC(=O)C(C(C)=O)c1nc2sc3cc(Cl)ccc3n2c(=N)c1C#N" was tested on MCF7 breast, and its growth came to 57.9% (inactive)

Entry "COc1cc2c(O)n(CCCn3ccnc3)c3c4cnc5cccc(c(=O)c3c2cc1OC)c54" , MCF7 breast data, growth value: 10.8% (inactive)

Considering "O=C(NCc1cn(Cc2cccc(Oc3ccccc3)c2)nn1)c1cccnc1NCc1ccc(Cl)cc1" , its growth with MCF7 breast was recorded as 14.9% (inactive)

"Cc1ccc(/C=C(\C#N)n2nnc3cc(Cl)c(Cl)cc32)cc1" tested on MCF7 breast gave growth: 6.58% (active)

Record "O=C1Nc2ccccc2/C1=N/N=C/c1ccsc1" / MCF7 breast, growth recorded as 49.5% (inactive)

Tested system MCF7 breast; growth recorded for "COc1ccc(-c2cc(-c3ccc(Nc4nc(Nc5ccccc5)nc(Nc5ccc(Cl)cc5)n4)cc3)nc(N)n2)cc1" was 22.6% (inactive)

Sample "C=C1C(=O)O[C@H]2[C@H]1CC/C(COC(=O)/C=C\C(=O)NCc1ccc(Cn3c(=O)sn(-c4ccc(C#N)cc4)c3=O)cc1)=C\CC[C@@]1(C)O[C@@H]21" , system: MCF7 breast. Its growth is -51.8% (active)

Noted growth for "Cc1c2c(cn1Cc1ccccc1)CCc1cn[nH]c1-2" , tested on MCF7 breast: 81.5% (inactive)

Form field growth for item "CCOc1ccc(S(=O)(=O)c2ccc(C)cc2)c2c1no[n+]2[O-]" on MCF7 breast: 83.1% (inactive)

Field growth (system: MCF7 breast) for entry O=C(NCCOCCOCCNc1cccc2c1C(=O)N(C1CCCNC1=O)C2=O)c1cc2c(o1)C(=O)c1ccccc1C2=O (stereo not drawn) = -63.3% (active)

Item "C=C1C(=O)O[C@H]2[C@H]1CC/C(COC(=O)/C=C\C(=O)NCc1ccc(Cn3c(=O)sn(CCCC)c3=O)cc1)=C\CC[C@@]1(C)O[C@@H]21" was tested on MCF7 breast; the reported growth is -43% (active)

Response field growth (MCF7 breast) for item "Nc1ccc(CCCCc2ccccc2)c(Cl)c1" : 98.6% (inactive)

Assay MCF7 breast, sample "CS(=O)(=O)c1ccc(N/N=C/c2c(-c3ccc(S(C)(=O)=O)cc3)[nH]c3ccc(F)cc23)cc1" , growth read: 18.9% (inactive)

Case "NC(=Nc1ccc(N)cc1)C(N)=Nc1ccc(N)cc1" , MCF7 breast, growth recorded as 90.4% (inactive)

The compound "NS(=O)(=O)Oc1ccc(-c2sc3cc(O)ccc3c2C(=O)c2ccc(OCCN3CCCCC3)cc2)cc1" , when measured on MCF7 breast, yielded growth of 29.4% (inactive)

GET /values?item= "Cc1ccc(NSc2ccccc2[N+](=O)[O-])cc1" &system= MCF7 breast returns growth: 30.4% (inactive)

Lab note: compound "C[C@@H]1C(=O)N(C[C@@H](Cc2ccccc2)NC(=O)OCc2ccccc2)[C@]1(Cc1ccccc1)C(=O)OCc1ccccc1" tested on MCF7 breast; recorded growth was 27% (inactive)

Value sought: growth, system MCF7 breast, item "Clc1ccc(/C=N\N=c2\scc(-c3ccc(Cl)cc3)n2/N=C/c2ccc(Cl)cc2)cc1" . Result: 93.6% (inactive)

Lab entry: MCF7 breast assay, compound "O=c1[nH]c(NCc2nnnn2-c2ccc(Br)cc2)nc2sc3c(c12)CCCC3" , growth = 92% (inactive)

Tested on MCF7 breast: "N#C/C(=C\c1ccc(Br)cc1)n1nnc2cc(Cl)c(Cl)cc21" . Observed growth: 6.51% (active)
